Test system: Tyrosine-protein kinase ABL1 (Homo sapiens), P00519 [T315I]
Conditions: at 1 µM
Param threshold (9%) applies to inhibition; output Yes when value >= threshold, No when value < threshold.

MOLECULE	LABEL_VALUE
CCS(=O)(=O)c1ccc(OC)c(Nc2ncc(-c3cccc(F)c3)o2)c1	Yes
COc1cc2c(cc1Nc1nc(Nc3cccc(F)c3C(N)=O)c3cc[nH]c3n1)N(C(=O)CN1CCN(C(C)C)CC1)CC2	No
CC1=C(C(=O)Nc2ccc3[nH]ncc3c2)C(c2ccc(F)cc2)N=C(c2ccc(C(F)(F)F)nc2)N1 (stereo not given)	No

Please indicate if the recorded inhibition for CN1CCC(n2cnc(-c3ccc(F)cc3)c2-c2ccnc(NCCO)n2)CC1 meets or exceeds 9%.
No

Please indicate if the recorded inhibition for COC(=O)Nc1nc2ccc(Oc3ccc(NC(=O)Nc4cc(C(F)(F)F)ccc4F)cc3)cc2s1 meets or exceeds 9%.
Yes

Please indicate if the recorded inhibition for c1cnn2ncc(-c3ccnc(NCCCN4CCOCC4)n3)c2c1 meets or exceeds 9%.
No

Please indicate if the recorded inhibition for NS(=O)(=O)c1cccc(N/C=C2\C(=O)Nc3ccccc32)c1 meets or exceeds 9%.
No

Please indicate if the recorded inhibition for FC(F)(F)CNc1nccc(-c2cnn3ncccc23)n1 meets or exceeds 9%.
No

Please indicate if the recorded inhibition for COc1cccc(-n2ncc3c(N/N=C/c4ccc(C(=O)NCCN(C)C)cc4)ncnc32)c1 meets or exceeds 9%.
Yes

Please indicate if the recorded inhibition for N#Cc1ccc2c(-c3ccnc(NC4CC4)n3)c(-c3ccc(F)cc3)nn2c1 meets or exceeds 9%.
No

Please indicate if the recorded inhibition for CS(=O)(=O)CCNCc1ccoc1-c1ccc2ncnc(Nc3ccc(OCc4ccccc4)cc3)c2c1 meets or exceeds 9%.
No

Please indicate if the recorded inhibition for COc1cccc(Nc2nccc(-c3cnn4ncccc34)n2)c1 meets or exceeds 9%.
Yes

###

Biological target: Maternal embryonic leucine zipper kinase (Homo sapiens) (UniProt Q14680);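 also: reported figure is the mean percent inhibition of MELK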
Sequence (Q14680 whole entry, looked up): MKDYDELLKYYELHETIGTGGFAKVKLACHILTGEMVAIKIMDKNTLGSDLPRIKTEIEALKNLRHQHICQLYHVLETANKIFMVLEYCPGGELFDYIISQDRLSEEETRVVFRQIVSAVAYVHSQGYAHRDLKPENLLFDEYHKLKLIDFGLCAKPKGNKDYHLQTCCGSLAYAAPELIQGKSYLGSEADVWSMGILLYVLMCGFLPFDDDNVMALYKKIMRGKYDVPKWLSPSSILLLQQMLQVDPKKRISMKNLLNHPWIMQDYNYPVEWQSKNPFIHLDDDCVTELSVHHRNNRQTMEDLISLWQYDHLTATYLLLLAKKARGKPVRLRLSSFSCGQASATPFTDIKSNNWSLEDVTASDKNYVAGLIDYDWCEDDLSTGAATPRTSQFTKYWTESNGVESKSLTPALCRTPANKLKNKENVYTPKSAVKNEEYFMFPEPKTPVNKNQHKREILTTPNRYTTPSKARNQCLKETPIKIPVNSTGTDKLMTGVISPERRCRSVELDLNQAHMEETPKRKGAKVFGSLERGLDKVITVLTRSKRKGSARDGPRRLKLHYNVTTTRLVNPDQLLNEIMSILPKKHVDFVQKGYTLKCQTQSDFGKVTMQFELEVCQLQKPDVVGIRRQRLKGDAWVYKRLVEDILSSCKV
Conditions: at 0.1 µM
Param threshold (4%) applies to inhibition; output yes when value >= threshold, no when value < threshold.

Illustrative cases are given below, each with its answer.
SUBSTANCE_SMILES	LABEL_VALUE
CN1CCC(n2cnc(-c3ccc(F)cc3)c2-c2ccnc(NCCO)n2)CC1	no
COC(=O)Nc1nc2cc(Oc3ccc(NC(=O)Nc4ccccc4)cc3)ccc2[nH]1	no
O=C1Nc2ccccc2/C1=C1\CCc2cc(O)ccc21	yes

Please indicate if the recorded inhibition for Cc1nnc(-c2cccc(-c3ccc(C(=O)NCC4CC4)cc3)c2)o1 meets or exceeds 4%.
no

Please indicate if the recorded inhibition for CNC(=O)c1ncccc1Nc1nc(Nc2cc3c(cc2OC)CCCN3C(=O)CN(C)C)nc2[nH]ccc12 meets or exceeds 4%.
no

Please indicate if the recorded inhibition for COc1ccccc1-c1cc(/C=C2\C(=O)Nc3ncc(Br)cc32)cc(Br)c1O meets or exceeds 4%.
yes

###

System: Platelet-derived growth factor receptor alpha (Homo sapiens), P16234 [T674I]
Sequence (P16234 whole entry T674I): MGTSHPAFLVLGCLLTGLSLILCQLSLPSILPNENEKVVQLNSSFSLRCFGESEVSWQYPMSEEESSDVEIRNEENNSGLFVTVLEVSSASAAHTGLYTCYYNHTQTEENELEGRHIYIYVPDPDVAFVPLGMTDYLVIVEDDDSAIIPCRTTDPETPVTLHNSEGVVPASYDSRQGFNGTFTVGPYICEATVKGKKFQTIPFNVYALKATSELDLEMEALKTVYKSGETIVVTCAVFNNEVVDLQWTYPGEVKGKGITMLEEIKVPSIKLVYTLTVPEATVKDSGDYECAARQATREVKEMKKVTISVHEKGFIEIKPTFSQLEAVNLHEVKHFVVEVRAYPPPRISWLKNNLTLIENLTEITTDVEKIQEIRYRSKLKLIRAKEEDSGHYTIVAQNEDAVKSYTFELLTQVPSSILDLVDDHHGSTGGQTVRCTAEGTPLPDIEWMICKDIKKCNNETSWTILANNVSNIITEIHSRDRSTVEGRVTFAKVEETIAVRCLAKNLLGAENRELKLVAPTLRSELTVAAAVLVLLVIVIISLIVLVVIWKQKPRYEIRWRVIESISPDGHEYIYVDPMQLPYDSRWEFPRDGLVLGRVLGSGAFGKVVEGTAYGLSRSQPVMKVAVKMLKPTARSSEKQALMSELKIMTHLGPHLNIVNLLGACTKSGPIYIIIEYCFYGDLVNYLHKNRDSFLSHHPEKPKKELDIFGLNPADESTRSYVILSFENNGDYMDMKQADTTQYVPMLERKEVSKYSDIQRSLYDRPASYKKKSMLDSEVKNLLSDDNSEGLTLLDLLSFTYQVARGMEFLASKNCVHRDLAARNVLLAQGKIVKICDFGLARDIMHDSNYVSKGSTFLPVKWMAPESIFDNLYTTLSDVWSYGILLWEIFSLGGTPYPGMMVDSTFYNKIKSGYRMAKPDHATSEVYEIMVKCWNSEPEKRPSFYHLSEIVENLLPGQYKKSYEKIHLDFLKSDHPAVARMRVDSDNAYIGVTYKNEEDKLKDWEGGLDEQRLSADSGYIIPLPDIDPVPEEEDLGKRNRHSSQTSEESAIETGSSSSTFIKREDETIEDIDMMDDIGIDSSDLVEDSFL
Conditions: at 1 µM
Param threshold (8%) applies to inhibition; output Yes when value >= threshold, No when value < threshold.

MOLECULE	LABEL_VALUE
CC1=C(C(=O)Nc2ccc3[nH]ncc3c2)C(c2ccc(F)cc2)N=C(c2ccc(C(F)(F)F)nc2)N1 (stereo not given)	No
CCS(=O)(=O)c1ccc(OC)c(Nc2ncc(-c3cccc(F)c3)o2)c1	Yes

Please indicate if the recorded inhibition for CCS(=O)(=O)c1ccc(OC)c(Nc2ncc(-c3cccc(C(C)=O)c3)o2)c1 meets or exceeds 8%.
Yes

Please indicate if the recorded inhibition for COc1ccc2ncn(-c3cc(O[C@H](C)c4ccccc4C(F)(F)F)c(C(N)=O)s3)c2c1 meets or exceeds 8%.
Yes

Data origin: ChEMBL document CHEMBL1961873
